# target_or_system: Rap guanine nucleotide exchange factor 3 (Homo sapiens)
# test_description: Confirmatory qHTS for antagonist of cAMP-regulated guanine nucleotide exchange factor 3 (EPAC1) (AID 1645880); further: nearly all actives have a fitted effect of over 55% in size
# test_conditions: EPAC1 Rap1B-BODIPY-GDP exchange, fluorescence; series mostly up to 115 µM
# Excerpt: Assay Provider (PI): Xiaodong Cheng Ph.D. The University of Texas Medical Branch, […], TX MLPCN Grant: NS066510 In multi-cellular eukaryotic organisms, the effects of cAMP are transduced by two ubiquitously-expressed intracellular cAMP receptors, the classic protein kinase A/cAMP-dependent protein kinase (PKA/cAPK) and the more recently discovered exchange protein directly activated by cAMP/cAMP-regulated guanine nucleotide exchange factor (EPAC/cAMP-GEF). […]
Inconclusive results are not listed. Active and inactive are the calls of the source. The call rests on the fitted dose curve; in most records, active means well fitted inhibition curve with a large enough effect; inconclusive means small, poorly fitted or top-dose-only effect; inactive means no such curve, though single readings can be large or run the other way.
Outcome codes: active, inactive

O=C(CCC(=O)N1CCSc2ccccc21)NCc1cccc(Cl)c1 ... inactive
CC(=O)c1ccc(N2CCN(C(=O)C3CCCN(S(=O)(=O)c4c(C)[nH]c(=O)[nH]c4=O)C3)CC2)cc1 (configuration not stated) ... inactive
O=C1Nc2ccccc2Nc2ncccc21 ... inactive
c1ccc2c(c1)oc1c(-c3ccc4nccn4c3)cccc12 ... inactive
CCN(CC(=O)Nc1c(F)cccc1F)C(=O)CCc1nc2sc3c(c2c(=O)[nH]1)CCCC3 ... active
CCN1/C(=C/C(C)=C/c2sc3ccccc3[n+]2CC)Sc2ccccc21 ... active
C(=C\c1nccc2ccccc12)/c1ccc(N2CCOCC2)cc1 ... inactive
Cc1ccc2[nH]cc(C(c3ccccc3)c3ccc(C)s3)c2c1 (configuration not stated) ... inactive
CN(C)CC/C=C1/c2ccccc2Sc2c(O)cc(Cl)cc21 ... inactive
COc1cc(NS(=O)(=O)c2ccc(NC(=O)/C(=C/c3ccccc3Cl)NC(=O)c3ccccc3)cc2)nc(OC)n1 ... active
Cc1ccnc(NS(=O)(=O)c2ccc(NC(=O)Cc3c(F)cccc3Cl)cc2)n1 ... inactive
NC(=O)C1CCN(C(=O)Nc2csc3ccccc23)CC1 ... inactive
CCC(C(=O)NCc1ccc(OC)c(OC)c1)n1nc(C)c2c(C)n(-c3ccc(C)cc3)nc2c1=O (configuration not stated) ... inactive
NC(=O)COC(=O)c1ccc(Cl)c(S(=O)(=O)N(Cc2ccccc2)c2ccc(Cl)cc2)c1 ... inactive
CN(C(=O)c1cc(-c2ccccc2)on1)C1CCCCC1 ... inactive
COc1cnc(-c2ccccn2)nc1Oc1c(C)cccc1C ... inactive
CCOc1cc(/C=C2\C(=N)N3N=C(S(=O)(=O)CC)SC3=NC2=O)ccc1OC(=O)c1ccco1 ... active
CCN(CC(=O)Nc1ccc(NC(C)=O)cc1)CC(=O)Nc1ccc(F)c(Cl)c1 ... inactive
CCNC(C(=O)c1c[nH]c2c(CC)cccc12)c1ccccc1 (configuration not stated) ... inactive
COc1ccc2oc(C)c(C(=O)c3ccc(C)cc3)c2c1 ... inactive
O=c1ccc(-c2ccccc2)nn1Cc1c(F)cccc1Cl ... inactive
COCCNC(=O)CS(=O)Cc1nc(-c2ccc(Cl)cc2)oc1C (configuration not stated) ... inactive
COc1cc2c(cc1OC)-c1cc(NCc3ccccn3)nc(=O)n1CC2 ... active
O=C(c1ccc(Br)cc1)N(Cc1cccs1)c1ccc(F)cc1 ... inactive
COc1cccc(CC(=O)Nc2ccc(S(=O)(=O)Nc3nccs3)cc2)c1 ... inactive
CCN(CC)C(=S)Oc1c(Cl)cccc1Cl ... inactive
CCOC(=O)c1sc(N=NC2=C(O)CCCC2=O)c(C(=O)OCC)c1C ... active
Cc1cnc(C(=O)N(c2ccc(N3CCOCC3)cc2)C2C(=O)Nc3ccccc3N=C2c2ccc(F)cc2)cn1 (configuration not stated) ... inactive
C[C@H]1CN([C@@H](C)CO)C(=O)c2cccc(NS(=O)(=O)c3ccc(Cl)cc3)c2O[C@@H]1CN(C)CC1CCCCC1 ... inactive
COc1ccc(S(=O)(=O)CC(=O)c2cc3cc(Br)ccc3oc2=O)cc1 ... active
CCOC(=O)C1=C(C)OC(N)=C(C#N)C1c1ccc(OC)c(CSc2ccccn2)c1 (configuration not stated) ... inactive
CCOC(=O)Cc1nnc(NC(=O)CSc2nnc3c(n2)[nH]c2ccccc23)s1 ... active
COc1ccc(-n2ccn(Cc3ccccc3Cl)c(=O)c2=O)cc1OC ... inactive
COC(=O)c1cc2occc2n1Cc1ccc(F)cc1Cl ... inactive
Cc1c(OC(C)C(=O)NC(Cc2c[nH]c3ccc(O)cc23)C(=O)O)ccc2c1oc(=O)c1ccccc12 (configuration not stated) ... active
Cc1ccc(S(=O)(=O)N2[C@@H](c3ccc(Cl)cc3)C(C(=O)O)=CC[C@H]2c2ccc(Cl)c(Cl)c2)cc1 ... active
NS(=O)(=O)c1cc(C(=O)NC2CCSc3ccccc32)ccc1Cl (configuration not stated) ... active
COc1ccc([N+](=O)[O-])cc1NC(=S)Nc1ccccc1 ... inactive
COc1ccc(C(=O)c2ccc(OC)cc2OC)cc1 ... inactive
COc1ccc(C2CN=NC23CCc2ccccc2C3=O)cc1 (configuration not stated) ... inactive
Cc1ccc(Cn2c(Cc3ccccc3)nc3ccccc32)cc1 ... inactive
Nc1nc(CSc2nnnn2-c2ccc(Cl)cc2)nc(N2CCOCC2)n1 ... inactive

###

# target_or_system: Rap guanine nucleotide exchange factor 3 (Homo sapiens) (UniProt O95398)
# Sequence (O95398 whole entry, looked up): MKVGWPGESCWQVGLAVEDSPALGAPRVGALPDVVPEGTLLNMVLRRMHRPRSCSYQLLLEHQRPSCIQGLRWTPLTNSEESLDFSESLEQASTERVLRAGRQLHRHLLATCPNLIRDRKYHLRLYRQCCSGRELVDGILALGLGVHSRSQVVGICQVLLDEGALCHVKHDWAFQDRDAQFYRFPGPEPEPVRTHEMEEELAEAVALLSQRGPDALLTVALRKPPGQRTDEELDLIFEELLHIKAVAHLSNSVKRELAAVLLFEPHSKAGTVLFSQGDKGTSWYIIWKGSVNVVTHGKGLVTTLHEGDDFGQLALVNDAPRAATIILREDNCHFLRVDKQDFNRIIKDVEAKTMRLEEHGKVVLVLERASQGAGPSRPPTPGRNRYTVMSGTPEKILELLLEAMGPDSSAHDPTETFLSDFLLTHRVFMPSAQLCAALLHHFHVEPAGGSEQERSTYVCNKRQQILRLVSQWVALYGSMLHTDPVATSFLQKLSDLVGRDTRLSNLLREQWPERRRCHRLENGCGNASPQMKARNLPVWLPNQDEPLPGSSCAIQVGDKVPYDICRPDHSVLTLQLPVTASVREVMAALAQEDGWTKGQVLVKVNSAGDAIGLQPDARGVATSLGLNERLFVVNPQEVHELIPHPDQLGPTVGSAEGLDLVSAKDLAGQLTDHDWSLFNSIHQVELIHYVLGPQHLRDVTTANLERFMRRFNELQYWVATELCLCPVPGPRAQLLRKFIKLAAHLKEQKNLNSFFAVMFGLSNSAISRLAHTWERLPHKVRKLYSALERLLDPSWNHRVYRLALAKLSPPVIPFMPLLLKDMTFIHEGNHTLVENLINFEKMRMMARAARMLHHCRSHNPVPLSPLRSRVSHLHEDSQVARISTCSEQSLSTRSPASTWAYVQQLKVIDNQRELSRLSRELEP
# test_description: Confirmatory qHTS for agonist of cAMP-regulated guanine nucleotide exchange factor 3 (EPAC1) (AID 1645881); further: nearly all actives have a fitted effect of over 75% in size;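 on activation: EPAC1 catalysed release of BODIPY-GDP from Rap1B seen as fluorescence loss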
# test_conditions: EPAC1 Rap1B BODIPY-GDP exchange fluorescence; series mostly up to 154 µM
Inconclusive results are not listed. Active and inactive are the calls of the source. The call rests on the fitted dose curve; in most records, active means well fitted activation curve with a large enough effect; inconclusive means small, poorly fitted or top-dose-only effect; inactive means no such curve, though single readings can be large or run the other way.
Possible outcomes: active, inactive

N#C/C(=C/c1ccc(N2CCOCC2)o1)c1nc2ccccc2[nH]1 ... active
CN(C)C(CNS(=O)(=O)c1ccc(Cl)cc1)c1cccnc1 (configuration not stated) ... inactive
COc1cc2ccccc2cc1C(=O)N1CCc2ccccc21 ... inactive
CCCCNC(=O)Cn1nc(N2CCN(c3ccccc3OC)CC2)ccc1=O ... inactive
Fc1ccc(-c2noc3ncnc(N4CCN(c5ccccc5)CC4)c23)cc1 ... inactive
CCc1cc(C(=O)c2ccc(OC)cc2)c(NC(=O)CC(C)(C)CC(=O)O)s1 ... inactive
O=C(O)C1CSC(c2ccco2)N1 (configuration not stated) ... inactive
CCOC(=O)C(C)n1cnc2c(nnn2-c2cccc(Cl)c2)c1=O (configuration not stated) ... inactive
OC[C@H]1O[C@H](OCCc2ccc(O)cc2)[C@H](O)[C@@H](O)[C@@H]1O ... inactive
CCOc1cc(/C=C2\C(=N)N3N=C(S(=O)(=O)CC)SC3=NC2=O)ccc1OC(=O)c1ccco1 ... inactive
COc1ccc(Cl)cc1N(C)C(=O)Cc1noc2ccc(C)cc12 ... inactive
COC(=O)c1cc2occc2n1Cc1ccc(F)cc1Cl ... inactive
O=c1c2ccccc2nc(/C=C/c2cccnc2)n1CCc1ccccc1 ... inactive
N#Cc1cc2c(=O)n3ccccc3nc2n(-c2nnc(SCc3ccccc3Cl)s2)c1=O ... inactive
Cc1ccc(C)c(COC(=O)c2cc(S(=O)(=O)N3CCCCC3)ccc2N2CCOCC2)c1 ... inactive
Cc1ccc2c(c1)C=CC(C#N)N2C(=O)c1ccccc1 (configuration not stated) ... inactive
CCNC(C(=O)c1c[nH]c2c(CC)cccc12)c1ccccc1 (configuration not stated) ... inactive
O=C(Cc1ccccc1Cl)Nc1ccc(S(=O)(=O)Nc2nccs2)cc1 ... inactive
CCc1cccc(C)c1Nc1c(-c2cccs2)nc2ncccn12 ... inactive
CCOc1cc(C2C3=C(CC(C)(C)CC3=O)N(CCOC)C3=C2C(=O)CC(C)(C)C3)ccc1O ... inactive
Cc1ccc(C(NC(=O)C(C)C)c2cc([N+](=O)[O-])c3cccnc3c2O)cc1 (configuration not stated) ... inactive
CCC(C(=O)Nc1cc(OC)ccc1OC)n1nc(-c2ccccc2)c2c(c1=O)CCCC2 (configuration not stated) ... inactive

###

# Test system: GB4
# test_description: qHTS profiling for inhibitors of Plasmodium falciparum proliferation (AID 504749); further: nearly all actives have a fitted effect of over 60% in size
# test_conditions: P. falciparum in erythrocytes, SYBR Green DNA, 72 h; series mostly up to 12.8 µM
Records with an inconclusive call do not appear. Activity calls are given as the source filed them. Calls follow the shape of the dose curve; as a rule, active = well fitted inhibition curve with a large enough effect; inconclusive = small, poorly fitted or top-dose-only effect; inactive = flat fitted curve, though single readings scatter.
Labels: active, inactive

CC(=O)[C@]1(O)CCC2C3C=C(Cl)C4=CC(=O)C5CC5[C@@]4(C)C3CC[C@]21C (stereo partly specified) ... inactive
CC(=O)C[C@H](c1ccc([N+](=O)[O-])cc1)c1c(O)c2ccccc2oc1=O ... inactive
COc1ccc2cc1Oc1ccc(cc1)CC1c3c(cc4c(c3Oc3cc5c(cc3OC)CCN(C)C5C2)OCO4)CCN1C (stereo unspecified) ... active
C1CCN2C[C@@H]3C[C@@H](CN4CCCC[C@H]34)[C@H]2C1 ... inactive
CC(C)C1CCC(C(=O)NC(Cc2ccccc2)C(=O)O)CC1 (stereo unspecified) ... inactive
CCCCC[C@H](O)/C=C\[C@H]1[C@H](C/C=C\CCCC(=O)O)[C@@H](O)C[C@H]1O (tested in a mixture with another compound) ... inactive
CCOC(=O)O[C@]1(C(=O)COC(=O)CC)CC[C@@H]2[C@@H]3CCC4=CC(=O)C=C[C@@]4(C)[C@H]3[C@H](O)C[C@]21C ... inactive
CC1(C)O[C@@H]2C[C@H]3[C@H]4C[C@H](F)C5=CC(=O)CC[C@]5(C)[C@@H]4[C@H](O)C[C@]3(C)[C@]2(C(=O)CO)O1 ... inactive
COC1C=CO[C@@]2(C)Oc3c(C)c(O)c4c(O)c(c5c(nc6cc(C)ccn65)c4c3C2=O)NC(=O)/C(C)=C\C=CC(C)C(O)[C@@H](C)C(O)C(C)[C@@H](OC(C)=O)C1C (stereo partly specified) ... active
C[C@H](Oc1ccccc1)C(=O)N[C@@H]1C(=O)N2[C@@H]1SC(C)(C)[C@@H]2C(=O)O ... inactive
CC(C)=CCC[C@](C)(O)C1CC=C(C)CC1 (stereo partly specified) ... inactive
CC[C@@]12CCCN3CCc4c(n(c5ccccc45)[C@](O)(C(=O)OC)C1)C32 (stereo partly specified) ... inactive
CO[C@]1(NC(=O)C2SC(=C(C(N)=O)C(=O)O)S2)C(=O)N2C(C(=O)O)=C(CSc3nnnn3C)CS[C@H]21 (stereo partly specified) ... inactive
COc1ccc(-c2cc(=O)c3c(O)cc(O[C@H]4OC(COC5OC(C)C(O)C(O)[C@H]5O)C(O)C(O)C4O)cc3o2)cc1O (stereo partly specified) ... inactive
CC(=O)O[C@]1(C(C)=O)CC[C@@H]2[C@@H]3C=C(C)C4=CC(=O)CC[C@@]4(C)[C@H]3CC[C@]21C ... inactive
NC(=O)c1ccc[n+]([C@@H]2O[C@H](COP(=O)([O-])OP(=O)(O)OC[C@H]3O[C@@H](n4cnc5c(N)ncnc54)[C@@H](O)[C@@H]3O)[C@@H](O)[C@@H]2O)c1 ... inactive
